Data credit: paper PMC12784346

Target: T1, AXL Ig1 domain fused to human Fc (Homo sapiens, UniProt P30530)
T1 construct: AXL receptor tyrosine kinase, human, Ig1 domain of the extracellular domain; Construct limits and production are in the Supplementary Information; also called AXL Ig1-Fc; AXL-Ig1-Fc
Test: BLI; Octet RED96; His-tagged scFv-osmY captured on Ni-NTA tips from undiluted bacterial supernatant (600 s); AXL Ig1 domain Fc 5.6 ug/ml in kinetic buffer (0.02% Tween 20, 0.05% sodium azide, 0.1% BSA in PBS) as analyte; rat Axl-Fc as control; traces scored by eye (normal, fast, very fast, weak, weak fast, none)
Conditions: one partner purified
Readout Label: binding result

| Binder | Meas Value |
| --- | --- |
| tilvestamab scFv-osmY N195A (scFv, V domains shown, VH of tilvestamab, as the VH of m1; linker; VL of tilvestamab, as the VL of m1; numbers count on: the scFv-osmY fusion protein; source: E. coli T7 expression strain, secreted, culture supernatant used directly; not shown: His6, C-terminal, kept) VH: EVQLVESGGGLVQPGGSLRLSCAASGYSFTDFYINWVRQAPGKGLEWVARIFPGGDNTYYNEKFKGRFTLSADTSKSTAYLQMNSLRAEDTAVYYCARRGLYYAMDYWGQGTLVTVSS VL: DIQMTQSPSSLSASVGDRVTITCRSSQSLVHSNGIPYLHWYQQKPGKAPKLLIYRVSARFSGVPSRFSGSGSGTDFTLTISSLQPEDFATYYCSQGTHVPPTFGQGTKVEIK | binds |
| tilvestamab scFv-osmY L102A (scFv, V domains shown, VH of tilvestamab, as the VH of m1; numbers count on: the scFv-osmY fusion protein; linker; VL of tilvestamab, as the VL of m1; source: E. coli T7 expression strain, secreted, culture supernatant used directly; not shown: His6, C-terminal, kept) VH: EVQLVESGGGLVQPGGSLRLSCAASGYSFTDFYINWVRQAPGKGLEWVARIFPGGDNTYYNEKFKGRFTLSADTSKSTAYLQMNSLRAEDTAVYYCARRGAYYAMDYWGQGTLVTVSS VL: DIQMTQSPSSLSASVGDRVTITCRSSQSLVHSNGIPYLHWYQQKPGKAPKLLIYRVSNRFSGVPSRFSGSGSGTDFTLTISSLQPEDFATYYCSQGTHVPPTFGQGTKVEIK | binds |
